# TEST: A549 lung cancer cell viability effects, profiling panel, resazurin fluorescence, 24 h, PK04 Diversity Set (AID 1171); further: test concentration not given here
# ASSAY SETUP: higher = more signal, called active from +8 up or from −8 down
READOUT NAME: z-score

molecule=Cc1ccc(S[C@]2(C(=O)O)CC(=O)N(Cc3ccccc3Cl)[C@@H]2c2ccc(CO)cc2I)cc1 readout_number=0.459
molecule=CC(C)Cc1ccc(CN2CC[C@@H](NC(=O)Nc3ccccc3)C2)cc1 readout_number=-2.79
molecule="O=C1C2C=CC(C(O)c3ccc(Br)cc3)N(Nc3ccccc3F)C2C(=O)N1c1ccccc1 (configuration not stated)" readout_number=0.0502
molecule=C=CC[C@]1(C(=O)NCCN2CCOCC2)N=C(c2ccc(OCCCO)cc2)O[C@H]1c1ccccc1CN=[N+]=[N-] readout_number=1.2
molecule=COCCOC(=O)N1C(=O)[C@@]2(c3cc(C#CCNC(N)=O)ccc31)[C@H](C(=O)N1CCc3cc(OC)c(OC)cc3C1)[C@H]1C(=O)O[C@H](c3ccccc3)[C@H](c3ccccc3)N1[C@@H]2c1ccccc1OCCO readout_number=-0.286
molecule=NC(=O)NCC#Cc1ccc2c(c1)[C@]1(C(=O)N2)[C@H](C(=O)O)[C@H]2C(=O)O[C@H](c3ccccc3)[C@H](c3ccccc3)N2[C@@H]1c1ccc(OCCO)cc1 readout_number=0.721
molecule=C[C@@H]1ON(c2ccc(C(=O)OC(C)(C)C)cc2)[C@H](c2ccc(O)cc2)[C@H]1C(=O)N1C(=O)OC[C@H]1Cc1ccccc1 readout_number=-1.31

----------
# System: Human papillomavirus type 1a protein E7 (residues 44-93)
# TEST: HPV1a E7 fragment binders on microarrays, primary screen, biochemical, small-molecule microarray, residues 44-93, 635 nm fluorescence (AID 1108);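 further: E7 fragment applied at 1 µg/mL in TBST for 1 h at 4 C; score combines spot fluorescence with its signal to noise ratio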
# ASSAY SETUP: small-molecule microarray binding, fluorescence 635 nm; higher = more signal
// composite z-score lookup, one value per entry
READOUT NAME: composite z-score

compound=O=C1O[C@@H](c2ccccc2)[C@@H](c2ccccc2)N2[C@@H](c3ccc(O)cc3)[C@]3(C(=O)Nc4ccc(C#CC5(O)CCCCCC5)cc43)[C@@H](C(=O)NC[C@H](O)c3ccccc3)[C@H]12 readout_name="composite z-score" readout_number=1.39
compound=COC(=O)c1c(CC[C@@H](CO)NC(=O)N[C@H](Cn2cc(C3(O)CCCCC3)nn2)C(C)C)oc(C(C)=O)c1C(=O)OC readout_name="composite z-score" readout_number=1.01
compound=C=C[C@@H](COC(C)=O)N(C(=O)OC(C)(C)C)S(=O)(=O)c1ccc(Br)cc1 readout_name="composite z-score" readout_number=0.789
compound="O=C1OCC=C[C@H]2OC34C=CCN(Cn5nnc6ccccc65)C(=O)[C@H]3N(CCCO)C(=O)[C@@H]4[C@@H]12 (some centres not stated)" readout_name="composite z-score" readout_number=-0.408
compound="[N-]=[N+]=NCc1ccccc1[C@H]1OC(c2ccc(OCCCO)cc2)=N[C@@]1(CCS(=O)(=O)c1ccccc1)C(=O)NCC(O)CO (some centres not stated)" readout_name="composite z-score" readout_number=1.46
compound="CC(C)(C)N1CC=CC23O[C@@H]4C=CCOC(=O)[C@@H]4[C@H]2C(=O)N(CCCCCCO)[C@@H]3C1=O (some centres not stated)" readout_name="composite z-score" readout_number=-1.38
compound=CCOC(=O)[C@H]1[C@@H]2C(=O)N3CCC[C@H]3[C@H](O[Si](C(C)C)(C(C)C)C(C)C)[C@H]2C=C2CCN(S(=O)(=O)c3ccc(C)cc3)C[C@H]21 readout_name="composite z-score" readout_number=1.28

----------
# Test system: Noggin (protein binding on small-molecule microarray)
# TEST: Noggin binders on small-molecule microarray, primary screen, biochemical, 635/667 nm fluorescence (AID 1095);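 further: score merges 667 nm feature fluorescence with signal to noise over triplicate slides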
# ASSAY SETUP: 635 nm fluorescence, higher = more signal
READOUT NAME: composite z-score

smiles=CCOC(=O)C[C@H]1[C@H](OC(=O)c2ccccc2-c2ccccc2)[C@@H](NC(=O)c2ccc(-c3ccccc3)cc2)c2cc(OCCCO)ccc2N1C(=O)c1ccc2ccccc2n1 readout_name="composite z-score" readout_number=0.427
smiles=CN(C)CCCCNC(=O)[C@@H]1C[C@@H]2C(=O)N[C@@H](Cc3ccccc3)C(=O)N2[C@@H]1c1cccc(OCCO)c1 readout_name="composite z-score" readout_number=1.45
smiles=COc1ccc([Si](C)(C)[C@@H]2[C@@H](CCn3cc([C@H](O)c4ccccc4)nn3)O[C@]3(C(=O)N(Cc4ccc(N5CCC5=O)cc4)c4ccccc43)[C@H]2C)cc1 readout_name="composite z-score" readout_number=1.13

----------
// composite z-score lookup, one value per entry
# TEST: binders of probe aFST on microarray, primary screen, stem cell growth factor project, biochemical, small-molecule microarray, fluorescence 635/667 (AID 1086);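 further: score merges 667 nm fluorescence with signal-to-noise of each printed compound spot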
# ASSAY SETUP: higher = more signal
READOUT NAME: composite z-score

compound="Cn1cccc1C(O)C1C=CC2C(=O)NC(=O)C2N1Nc1ccc(Cl)cc1Cl (centres undefined)" readout_number=1.92
compound=COc1ccc([Si](C)(C)[C@H]2[C@H](CC(=O)N(CCO)Cc3ccccc3)O[C@@]3(C(=O)N(Cc4cccc(N5CCOC5=O)c4)c4ccccc43)[C@@H]2C)cc1 readout_number=-0.0174
compound=Cc1ccc(S[C@]2(C(=O)O)CC(=O)N(Cc3cc(C(F)(F)F)cc(C(F)(F)F)c3)[C@@H]2c2ccc(CO)cc2)cc1 readout_number=-0.395
compound=[N-]=[N+]=NCc1ccccc1C[C@@]1(C(=O)NCc2ccccc2)N=C(c2ccc(OCCCO)cc2)O[C@@H]1c1ccccc1N=[N+]=[N-] readout_number=1.27

----------
# TEST: anti-His antibody binders, primary screen, artefact control for SMM control protein annotation, biochemical, small-molecule microarray, 635 nm fluorescence (AID 1128);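 further: score merges feature fluorescence with signal-to-noise for each printed compound spot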
# ASSAY SETUP: anti-His Alexa647 antibody binding, higher = more signal
READOUT NAME: composite z-score

compound="Cc1cc(C)c(C(O)C2C=CC3C(=O)NC(=O)C3N2Nc2ccc(Cl)cc2Cl)c(C)c1 (centres undefined)" readout_name="composite z-score" result=1.37
compound=COC(=O)[C@@]1(Cc2ccc(F)cc2)[C@H]2c3cc(C(=O)N(C)C)n(CCc4ccc(O)c(OC)c4)c3C[C@H]2CN1C(=O)c1ccccc1 readout_name="composite z-score" result=0.339
compound=COC(=O)[C@@]1(Cc2ccccc2)[C@H]2c3cc(C(=O)N(C)C)n(CCN4CNCC4=O)c3C[C@H]2CN1C(=O)c1ccccc1 readout_name="composite z-score" result=3.19
compound=CCOC(=O)C[C@H]1[C@H](OC(=O)c2ccccc2-c2ccccc2)[C@@H](NC(=O)c2ccc(-c3ccccc3)cc2)c2cc(OCCCO)ccc2N1C(=O)c1ccc2ccccc2n1 readout_name="composite z-score" result=0.792
compound=C=CC[C@]1(C(=O)O)COC(c2ccc(OCCCO)cc2)=N1 readout_name="composite z-score" result=1.53
compound="C[C@H]1NC(=O)[C@@]23C(=O)N[C@@H](Cc4ccccc4)C2[C@H](C)[C@@]2(C)O[C@H]2C3/C=C/C/C=C\\CNC(=O)[C@H](Cc2ccccc2)NC1=O (some centres undefined)" readout_name="composite z-score" result=0.624
compound=COC(=O)[C@@]1(Cc2ccc(OC)cc2)[C@H]2c3cc(C(=O)N(C)C)n(C[C@H](O)CO)c3C[C@H]2CN1C(=O)c1ccccc1 readout_name="composite z-score" result=0.396
compound=COCCOC(=O)N1C(=O)[C@@]2(c3cc(C#CC4(O)CCCCCC4)ccc31)[C@H](c1ccc(O)cc1)N1[C@H](c3ccccc3)[C@H](c3ccccc3)OC(=O)[C@H]1[C@@H]2C(=O)NC[C@H](O)c1ccccc1 readout_name="composite z-score" result=0.496
compound="O=C1OCCC/C=C\\[C@H]2OC34C=CCN(CCN5CCOCC5)C(=O)[C@H]3N(CCCCCCO)C(=O)[C@@H]4C12 (some centres undefined)" readout_name="composite z-score" result=3.45
compound="CC(C)N1CC=CC23O[C@@H]4C=CCOC(=O)[C@@H]4[C@H]2C(=O)N(CCCO)[C@@H]3C1=O (some centres undefined)" readout_name="composite z-score" result=1.59
compound="C=CCC(OC(C)=O)[C@@H]1[C@@H](N(Cc2ccc(-c3ccccc3)cc2)C(=O)Cc2ccc(F)cc2)c2cc(OCCCO)ccc2N1C(=O)Cc1ccc(OC)cc1 (some centres undefined)" readout_name="composite z-score" result=-0.148
compound="CC=CC(O)C1C=CC2C(=O)N(c3ccccc3)C(=O)C2N1Nc1ccccc1F (centres undefined)" readout_name="composite z-score" result=0.817
compound="O=C1C2C=CC(C(O)c3ccc(F)cc3)N(n3cnnc3)C2C(=O)N1Cc1ccccc1 (centres undefined)" readout_name="composite z-score" result=-0.782
compound=COCCOC(=O)N1C(=O)[C@@]2(c3cc(C#CCCO)ccc31)[C@H](c1ccccc1OCCO)N1[C@H](c3ccccc3)[C@H](c3ccccc3)OC(=O)[C@H]1[C@@H]2C(=O)Nc1nc2ccccc2s1 readout_name="composite z-score" result=2.09

The origin of these recorded values is PubChem BioAssay.
